Numbers sourced from paper PMC10786891.

Target: T1, EsCas13d, nuclease-dead (Eubacterium siraeum, UniProt B0MS50, R295A;H300A;R849A;H854A)
T1 sequence: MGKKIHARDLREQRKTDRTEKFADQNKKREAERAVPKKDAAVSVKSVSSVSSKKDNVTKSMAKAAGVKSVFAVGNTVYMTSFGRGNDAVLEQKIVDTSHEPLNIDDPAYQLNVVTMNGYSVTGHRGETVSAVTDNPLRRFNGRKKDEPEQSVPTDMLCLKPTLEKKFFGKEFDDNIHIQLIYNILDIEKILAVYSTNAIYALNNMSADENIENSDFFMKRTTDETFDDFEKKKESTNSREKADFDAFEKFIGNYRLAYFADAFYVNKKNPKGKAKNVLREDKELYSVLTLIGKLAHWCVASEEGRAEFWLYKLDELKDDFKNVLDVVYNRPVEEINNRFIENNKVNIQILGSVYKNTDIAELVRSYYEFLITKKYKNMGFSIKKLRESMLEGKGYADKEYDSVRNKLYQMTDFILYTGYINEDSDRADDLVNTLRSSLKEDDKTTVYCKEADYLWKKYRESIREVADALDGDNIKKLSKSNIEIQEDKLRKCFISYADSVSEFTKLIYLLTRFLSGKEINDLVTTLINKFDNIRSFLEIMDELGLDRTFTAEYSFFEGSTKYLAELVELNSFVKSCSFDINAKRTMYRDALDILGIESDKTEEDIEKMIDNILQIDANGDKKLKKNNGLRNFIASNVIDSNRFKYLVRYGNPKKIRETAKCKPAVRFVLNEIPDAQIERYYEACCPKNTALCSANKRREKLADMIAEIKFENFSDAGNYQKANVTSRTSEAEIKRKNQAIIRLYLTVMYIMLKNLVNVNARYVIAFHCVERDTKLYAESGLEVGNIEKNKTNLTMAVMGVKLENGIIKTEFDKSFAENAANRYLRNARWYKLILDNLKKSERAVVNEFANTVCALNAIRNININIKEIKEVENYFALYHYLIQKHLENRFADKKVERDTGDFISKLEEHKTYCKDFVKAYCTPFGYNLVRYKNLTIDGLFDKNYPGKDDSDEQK
Test: crRNA (strand 1, pre-loaded); Mg2+; 40 mM Tris-HCl pH 7.5, 150 mM NaCl, 6 mM MgCl2, 1 mM DTT, 0.1% Tween-20, 0.2 mg/ml BSA; 25 C; 10 min per concentration, then washed
Conditions: tags: His6-TwinStrep-SUMO cleaved; N-terminal SNAP kept (SNAP-Surface 488); label: 3' end held by stalled T7 RNA polymerase
Rule: measured Kd below 9 nM gets label 1; anything equal to or greater than 9 nM gets label 0.

The following binders have reported results that may help.
{"columns": ["binder", "answer_label"],
 "data": [
  ["target 3 G4A,A11G (mixed) RNA 1: CACCCGUGCAAAAUUGCAGGGGUCUAAAACGACCUGAAUAUUUCAGAUCAAA RNA 2: GGGAAUGGAUCCACAUCUACGAAUUCGUUUUUGAUCUGAAGUAUUCAAGUCUGCAGAUCGGAAGAGCACACGU", "label 0"],
  ["target 1 MT 5'PFS UAC 3'PFS CCG (mixed) RNA 1: CACCCGUGCAAAAAUGCAGGGGUCUAAAACUGAGCGGAUAACCUCUCUAUGG RNA 2: GGGAAUGGAUCCACAUCUACGAAUUCUACCCAUAGAGAGGUUAUCCGCUCACCGAGAUCGGAAGAGCACACGU", "label 0"],
  ["target 1 insC 3' of 9,insG 3' of 3 (mixed) RNA 1: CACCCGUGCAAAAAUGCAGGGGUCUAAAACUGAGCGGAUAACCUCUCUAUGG RNA 2: GGGAAUGGAUCCACAUCUACGAAUUCGUACCAUAGAGAGGUUACUCCGCUGCACCGAGAUCGGAAGAGCACACGU", "label 1"]
]}

Task: is_below(Kd, 9 nM) for target 1 A1U,A16C (mixed) RNA 1: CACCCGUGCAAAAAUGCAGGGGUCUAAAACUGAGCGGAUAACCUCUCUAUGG RNA 2: GGGAAUGGAUCCACAUCUACGAAUUCGUACCAUAGCGAGGUUAUCCGCUCUCCGAGAUCGGAAGAGCACACGU ?
Result: label 0

Task: Same lookup for target 2 MT 5'PFS GGG 3'PFS UCA (mixed) RNA 1: CACCCGUGCAAAAUUGCAGGGGUCUAAAACCUUCUCCAAAUUGUUUCAUCCU RNA 2: GGGAAUGGAUCCACAUCUACGAAUUCGGGAGGAUGAAACAAUUUGGAGAAGUCAAGAUCGGAAGAGCACACGU , please.
Result: label 0

Task: What about this binder? target 2 MT 5'PFS AAC 3'PFS CAG (mixed) RNA 1: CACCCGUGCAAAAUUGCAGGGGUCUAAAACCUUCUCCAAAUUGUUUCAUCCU RNA 2: GGGAAUGGAUCCACAUCUACGAAUUCAACAGGAUGAAACAAUUUGGAGAAGCAGAGAUCGGAAGAGCACACGU
Result: label 1

Task: Try this binder next: target 1 insG 3' of 16,insA 3' of 10 (mixed) RNA 1: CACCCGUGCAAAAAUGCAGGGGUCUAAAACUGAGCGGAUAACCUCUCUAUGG RNA 2: GGGAAUGGAUCCACAUCUACGAAUUCGUACCAUAGAGGAGGUUAAUCCGCUCACCGAGAUCGGAAGAGCACACGU
Result: label 0
